- Tested on: Salmonella typhimurium
- assay method text: In vitro minimum inhibitory concentration for Salmonella Typhimurium (ATCC-14028) by agar dilution method
- Format: functional, Salmonella enterica subsp. enterica serovar Typhimurium
- condition parameters: Salmonella enterica; read-out: MIC
readout: MIC (µg/mL)
Numbers only, in µg/mL.

CC(C)(O/N=C(\C(=O)NC1C(=O)N2C(C(=O)[O-])=C(CSc3nc(N)cc(N)[n+]3-c3ccc(Cl)cc3)CSC12)c1cnc(N)s1)C(=O)O (stereo not given) | 0.5
Cc1ccc(-[n+]2c(N)cc(N)nc2SCC2=C(C(=O)[O-])N3C(=O)C(NC(=O)/C(=N\OC(C)(C)C(=O)O)c4cnc(N)s4)C3SC2)c(C)c1 (stereo not given) | 2
C[n+]1c(O)cc(O)nc1SCC1=C(C(=O)[O-])N2C(=O)C(NC(=O)/C(=N\OC(C)(C)C(=O)O)c3cnc(N)s3)C2SC1 (stereo not given) | 16

For each of the items listed, what is its MIC?
1. CC(C)(O/N=C(\C(=O)NC1C(=O)N2C(C(=O)O)=C(CSc3nccc(O)n3)CSC12)c1cnc(N)s1)C(=O)O (stereo not given)
2. CNc1cc2n(C)cc[n+]2c(SCC2=C(C(=O)[O-])N3C(=O)C(NC(=O)/C(=N\OC(C)(C)C(=O)O)c4cnc(N)s4)C3SC2)n1 (stereo not given)

A:
[64, 0.5]

---

- Tested on: Proteus vulgaris
- assay method text: In vitro minimum inhibitory concentration for Proteus vulgaris (ATCC-6059) by agar dilution method
- Assay type: functional
- condition parameters: Proteus vulgaris; read-out: MIC
readout: MIC
Your reply should be a number followed by the unit it is expressed in.

CC(C)(O/N=C(\C(=O)NC1C(=O)N2C(C(=O)[O-])=C(CSc3nc(N)cc[n+]3N)CSC12)c1cnc(N)s1)C(=O)O (stereo not drawn) | 0.03 µg/mL

// each compound listed below needs its MIC
1. Cc1ccc(-[n+]2c(N)cc(N)nc2SCC2=C(C(=O)[O-])N3C(=O)C(NC(=O)/C(=N\OC(C)(C)C(=O)O)c4cnc(N)s4)C3SC2)c(C)c1 (stereo not drawn)
2. C/C=C/[n+]1c(N)cc(N)nc1SCC1=C(C(=O)[O-])N2C(=O)C(NC(=O)/C(=N\OC(C)(C)C(=O)O)c3cnc(N)s3)C2SC1 (stereo not drawn)

A:
1. 0.25 µg/mL
2. 0.06 µg/mL

---

Answer each item with its documented MIC.
- Test system: Enterobacter cloacae
- assay method text: In vitro minimum inhibitory concentration for Enterobacter cloacae (ATCC-27508) by agar dilution method
- Type: functional
- condition parameters: Enterobacter cloacae; read-out: MIC
Give bare numbers, in µg/mL.

Consider the reported MIC for these molecules:
CC(C)(O/N=C(\C(=O)NC1C(=O)N2C(C(=O)[O-])=C(CSc3nc(N)cc(N)[n+]3-c3ccc(O)cc3)CSC12)c1cnc(N)s1)C(=O)O (stereo not drawn) | 0.06
CC(C)(O/N=C(\C(=O)NC1C(=O)N2C(C(=O)[O-])=C(CSc3nc(N)c4c([n+]3N)CCCC4)CSC12)c1cnc(N)s1)C(=O)O (stereo not drawn) | 0.02

Now consider a different molecule.
Q: # query: MIC of entry CCn1cc[n+]2c(SCC3=C(C(=O)[O-])N4C(=O)C(NC(=O)/C(=N\OC(C)(C)C(=O)O)c5cnc(N)s5)C4SC3)nc(N)cc12 (stereo not drawn)
A: 0.02
